Data credit: patent US20250042994A1

assay target: T1, Human CD19-his protein (human, UniProt P15391 20-291)
T1 construct: bought protein; also called human CD19 protein; recombinant human CD19-His; not shown: His tag
T1 sequence (looked up): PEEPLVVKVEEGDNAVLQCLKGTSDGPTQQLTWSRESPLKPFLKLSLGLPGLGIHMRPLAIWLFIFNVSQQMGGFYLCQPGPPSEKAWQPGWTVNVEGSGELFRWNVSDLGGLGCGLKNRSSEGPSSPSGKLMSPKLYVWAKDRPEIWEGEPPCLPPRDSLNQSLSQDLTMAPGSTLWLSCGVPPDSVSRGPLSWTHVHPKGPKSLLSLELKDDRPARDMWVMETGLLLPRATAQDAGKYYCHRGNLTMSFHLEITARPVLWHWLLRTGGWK
assay overview: ELISA, antibody at 1.00 nM

{"binder": "F3.133.14 (antibody, human IgG1, V domains shown, human-murine chimeric antibody, human IgG1) VH: QVQLQQPGAELVMPGASVKLSCKASGYTFTNYWMHWVKQRPGQGLEWIGEIDPSDYYANYNQKFKGKATLTVDKSSSTAYMQLSSLTSEDSAVYYCARSHYYANSYNYWGQGTTLTVSS VL: EIELTQSPTTMAASPGEKITITCSASSSISSDYLHWYQQKPGFSPKLLIYRTSNLASGLPARFSGSGSGTSYSLTIGTMEAEDVATYYCQQGSSVPRMLTFGAGTKLELK", "OD450": 1.59}
{"binder": "F4.191.1 (antibody, human IgG1, V domains shown, human-murine chimeric antibody, human IgG1) VH: QVQLQQPGAELVRPGASVKLSCKASGYTFTSYWINWVKQRPGQGLEWIGNIHPSDSYTNYNQKFKDKATLTVDKSSSTAYMQFSSPTSEDSAVYYCTREDYYYGSNYDAMDYWGQGTSVTVSS VL: DIVMTQSHKFMSTSVGDRVNITCKASQDVGSSVAWYQQKPGQSPKLLIYWASTRHAGVPDRFTGSGSGADFTLTISNVQSEDLADYFCQQYSTYPLTFGAGTKLELK", "OD450": 1.42}
{"binder": "F5.2.9 (antibody, human IgG1, V domains shown, human-murine chimeric antibody, human IgG1) VH: QVTLKESGPGILQPSQTLSLTCSFSGFSLSTFGLGVGWVRQPSGKGLEWLAHIWWDDDKYYNPALKSRVTVSKETSKNQVFFKIANVDTADSATYYCARLSRGLRRDVVYAMDHWGQGTSVTVSS VL: DIQMTQTTSSLSASLGDRVTISCRASQDISNYLNWYQQKPDGSVKLLISYVSRLQSGVPSRFRGSGSGTDYSLTISNLDQEDIATYFCQQGIAFPYTFGGGTKLDIK", "OD450": 1.55}
{"binder": "F4.22.6 (antibody, human IgG1, V domains shown, human-murine chimeric antibody, human IgG1) VH: QVQLQQSGPELVKPGASVKISCKASGYAFSSFWMNWVKQRPGQGLEWIGRIYPGDGDTNYNGKFKGKATLTADKSSTTAYMHLSSLTSVDSAVYFCTRSVITAVVDWYFDVWGAGTTVTVSS VL: QIVLSQSPAILSASPGEKVTLTCRASSSVNFMHWYQQKPGSSPKPWIYATSNLASGAPARFSGSGSGTSYSLTISRVEAEDAAAYYCQQWSSYPIFTFGSGTKLEIK", "OD450": 0.83}
